Test system: Bacillus subtilis
protocol: Antibacterial activity against Bacillus subtilis ATCC 23857 incubated for 18 hrs by broth microdilution method
Format: functional
property measured: MIC (µM)
Report only the number, with the unit µM understood.

Reading of MIC for `NCCCC[C@@H](NC(=O)[C@H](N)Cc1c[nH]c2ccccc12)C(=O)N[C@H](Cc1c[nH]c2ccccc12)C(=O)N[C@H](CCCCN)C(=O)N[C@H](Cc1c[nH]c2ccccc12)C(=O)N1CCC[C@@H]1C(=O)NCC(=O)N[C@H](Cc1c[nH]c2ccccc12)C(=O)N[C@H](CCCCN)C(=O)N[C@H](Cc1c[nH]c2ccccc12)C(=O)N[C@H](CCCCN)C(=O)N[C@H](Cc1c[nH]c2ccccc12)C(N)=O` with Bacillus subtilis: 2

###

System: Escherichia coli
protocol: Antibacterial activity against rifampicin resistant Escherichia coli incubated for 18 hrs by broth microdilution method
Type: functional
property measured: MIC

| compound | target or system | property measured | result |
| --- | --- | --- | --- |
| O=C(O)c1cn(C2CC2)c2cc(N3CCNCC3)c(F)cc2c1=O [CIPROFLOXACIN] | Escherichia coli | MIC | 0.5 µM |
| CO/N=C(\C(=O)N[C@@H]1C(=O)N2C(C(=O)O)=C(COC(C)=O)CS[C@H]12)c1csc(N)n1 [CEFOTAXIME] | Escherichia coli | MIC | 0.5 µM |
| NC[C@H]1O[C@H](O[C@H]2[C@H](O)[C@@H](O[C@H]3O[C@H](CO)[C@@H](O)[C@H](N)[C@H]3O)[C@H](N)C[C@@H]2N)[C@H](O)[C@@H](O)[C@@H]1O [KANAMYCIN] | Escherichia coli | MIC | 4 µM |
| NCCCC[C@@H](NC(=O)[C@H](N)Cc1c[nH]c2ccccc12)C(=O)N[C@H](Cc1c[nH]c2ccccc12)C(=O)N[C@H](CCCCN)C(=O)N[C@H](Cc1c[nH]c2ccccc12)C(=O)N[C@@H](CC(N)=O)C(=O)NCC(=O)N[C@H](Cc1c[nH]c2ccccc12)C(=O)N[C@H](CCCCN)C(=O)N[C@H](Cc1c[nH]c2ccccc12)C(=O)N[C@H](CCCCN)C(=O)N[C@H](Cc1c[nH]c2ccccc12)C(N)=O | Escherichia coli | MIC | 8 µM |
| CO[C@H]1/C=C/O[C@@]2(C)Oc3c(C)c(O)c4c(O)c(c(/C=N/N5CCN(C)CC5)c(O)c4c3C2=O)NC(=O)/C(C)=C\C=C\[C@H](C)[C@H](O)[C@@H](C)[C@@H](O)[C@@H](C)[C@H](OC(C)=O)[C@@H]1C [RIFAMPIN] | Escherichia coli | MIC | 256 µM |

Looking up CN[C@H](CC(C)C)C(=O)N[C@H]1C(=O)N[C@@H](CC(N)=O)C(=O)N[C@H]2C(=O)N[C@H]3C(=O)N[C@H](C(=O)N[C@H](C(=O)O)c4cc(O)cc(O)c4-c4cc3ccc4O)[C@H](O)c3ccc(c(Cl)c3)Oc3cc2cc(c3O[C@@H]2O[C@H](CO)[C@@H](O)[C@H](O)[C@H]2O[C@H]2C[C@](C)(N)[C@H](O)[C@H](C)O2)Oc2ccc(cc2Cl)[C@H]1O [VANCOMYCIN] , I found its MIC recorded as 128 µM

Looking up CN[C@@H]1[C@H](O[C@H]2[C@H](O[C@H]3[C@H](O)[C@@H](O)[C@H](N=C(N)N)[C@@H](O)[C@@H]3N=C(N)N)O[C@@H](C)[C@]2(O)C=O)O[C@@H](CO)[C@H](O)[C@H]1O [STREPTOMYCIN] , I found its MIC recorded as 2 µM

Looking up C[C@@H](O)[C@H]1C(=O)N2C(C(=O)O)=C(SCCNC=N)C[C@H]12 [IMIPENEM ANHYDROUS] , I found its MIC recorded as 0.5 µM

Looking up C[C@@H](O)[C@H]1C(=O)N2C(C(=O)O)=C(S[C@@H]3CN[C@H](C(=O)N(C)C)C3)[C@H](C)[C@H]12 [MEROPENEM] , I found its MIC recorded as 0.5 µM
